These measurements were taken from patent US7375083B2.

Assay: Oral bioavailability in rats at escalating doses, LC/MS/MS
Conditions: male, Sprague-Dawley, rat, in vivo, po, 12 mg/kg
outcome_measure: AUC(0-t)

{"columns": ["molecule", "outcome_measure", "result"],
 "data": [
  ["CC(Cc1ccccc1)NC(=O)C(N)CCCCN (stereo not shown)", "AUC(0-t)", "4240 ng·h/mL"]
]}

----------
Experiment: Oral bioavailability in rats at escalating doses, LC/MS/MS
Details: male, Sprague-Dawley, rat, in vivo, po, 12 mg/kg
outcome_measure: Cmax (ng/mL)

{"columns": ["molecule", "outcome_measure", "recorded_number"],
 "data": [
  ["CC(Cc1ccccc1)NC(=O)C(N)CCCCN [L-lysine-d-amphetamine]", "Cmax", 856]
]}

----------
Assay: Crossover pharmacokinetics in dogs, oral vs 30-min intravenous infusion, LC-MS/MS
Type: in vivo, male beagle dogs
Conditions: male, beagle, dog, plasma, iv, 2 mg/kg, male beagle dogs 1-3 and Mean; 30-min iv infusion; 2 mg/kg/h (free form); read-out: AUC(0-t) of L-lysine-d-amphetamine

{"columns": ["compound", "AUC(0-t) (ng·h/mL)"],
 "data": [
  ["CC(Cc1ccccc1)NC(=O)C(N)CCCCN (stereo not shown)", 914]
]}

----------
Property: Percent HC (Cmax); scope: individual molecules
Assay: Oral bioavailability of hydrocodone conjugates in rats, LC/MS/MS
Conditions: oral, 1 mg/kg dose, relative to hydrocodone bitartrate
Where a SMILES comes first, the peptide text is derived from it. The star is where a group is joined. X1 = COc1ccc2c3c1O[C@H]1C(O*)=CC[C@H]4[C@@H](C2)N(C)CC[C@]314
outcome_measure: Percent HC (Cmax) (%)

{"columns": ["molecule", "recorded_number"],
 "data": [
  ["CC[C@H](C)[C@H](NC(=O)[C@H](Cc1ccccc1)NC(=O)[C@H](Cc1ccccc1)NC(=O)[C@H](CCC(=O)O)NC(=O)[C@@H](N)CCC(=O)O)C(=O)OC1=CC[C@H]2[C@H]3Cc4ccc(OC)c5c4[C@@]2(CCN3C)[C@H]1O5 [EEFFI[SEQ ID NO: 5]-HC] (H-EEFFI-X1)", 136],
  ["COc1ccc2c3c1O[C@H]1C(OC(=O)[C@H](Cc4ccccc4)NC(=O)[C@H](Cc4ccccc4)NC(=O)[C@H](Cc4ccccc4)NC(=O)[C@H](CCC(=O)O)NC(=O)[C@@H](N)CCC(=O)O)=CC[C@H]4[C@@H](C2)N(C)CC[C@]314 [EEFFF[SEQ ID NO: 3]-HC] (H-EEFFF-X1)", 119],
  ["CC[C@H](C)[C@H](NC(=O)[C@H](CC(=O)O)NC(=O)[C@@H](N)CC(=O)O)C(=O)OC1=CC[C@H]2[C@H]3Cc4ccc(OC)c5c4[C@@]2(CCN3C)[C@H]1O5 [DDI-HC, Asp-Asp-Ile-Hydrocodone]", 173],
  ["CC[C@H](C)[C@H](NC(=O)[C@H](Cc1ccc(O)cc1)NC(=O)[C@@H](N)Cc1ccc(O)cc1)C(=O)OC1=CC[C@H]2[C@H]3Cc4ccc(OC)c5c4[C@@]2(CCN3C)[C@H]1O5 [YYI-HC, Tyr-Tyr-Ile-Hydrocodone]", 100],
  ["CC[C@H](C)[C@H](NC(=O)[C@H](Cc1ccccc1)NC(=O)[C@H](Cc1ccccc1)NC(=O)[C@H](Cc1ccc(O)cc1)NC(=O)[C@@H](N)Cc1ccc(O)cc1)C(=O)OC1=CC[C@H]2[C@H]3Cc4ccc(OC)c5c4[C@@]2(CCN3C)[C@H]1O5 [YYFFI[SEQ ID NO: 8]-HC] (H-YYFFI-X1)", 81]
]}
